Below is a list of entries, each paired with its recorded kinase still bound, per cent of control value.
System: ABL1 (human), P00519 [T315I]
methodSummary: KINOMEscan competition binding
conditionLabel: compound 10.0 µM
Form entry: value (%) — number only.

Guide cases for kinase still bound, per cent of control, answers given:
COc1cc(C)c(Sc2cnc(NC(=O)c3ccc(CNC(C)C(C)C)cc3)s2)cc1C(=O)N1CCN(C(C)=O)CC1 (stereo not drawn) = 19
Cn1c(=O)n(-c2ccc(C(C)(C)C#N)cc2)c2c3cc(-c4cnc5ccccc5c4)ccc3ncc21 = 100
Cc1ccc2nc(NCCN)c3ncc(C)n3c2c1 = 100

Prompt: // Input: `COc1cc(N2CCN(C)CC2)ccc1Nc1ncc2c(n1)N(C)c1ccccc1C(=O)N2C` . Output its kinase still bound, per cent of control only.
Completion: 100

Prompt: Look up and report measured kinase still bound, per cent of control for this entry: `CCCS(=O)(=O)Nc1ccc(F)c(C(=O)c2c[nH]c3ncc(-c4ccc(Cl)cc4)cc23)c1F`
Completion: 79

* * *

Reported kinase still bound, per cent of control values are given for each entry in this list.
measuredOn: CDK18 (human) (UniProt Q07002)
Sequence (Q07002 whole entry, looked up): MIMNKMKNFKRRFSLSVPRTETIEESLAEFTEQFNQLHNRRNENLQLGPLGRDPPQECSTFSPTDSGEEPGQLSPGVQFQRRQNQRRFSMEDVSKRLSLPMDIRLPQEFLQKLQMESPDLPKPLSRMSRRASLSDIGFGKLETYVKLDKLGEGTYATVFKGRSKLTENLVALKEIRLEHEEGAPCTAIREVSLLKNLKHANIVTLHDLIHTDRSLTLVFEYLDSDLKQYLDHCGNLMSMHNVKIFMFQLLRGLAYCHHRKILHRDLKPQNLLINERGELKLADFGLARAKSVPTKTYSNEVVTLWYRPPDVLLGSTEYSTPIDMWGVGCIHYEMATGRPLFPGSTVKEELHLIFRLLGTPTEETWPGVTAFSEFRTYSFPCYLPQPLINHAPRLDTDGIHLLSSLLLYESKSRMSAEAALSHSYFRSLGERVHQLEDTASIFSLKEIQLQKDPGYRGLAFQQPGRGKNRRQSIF
methodSummary: KINOMEscan competition binding
conditionLabel: compound 10.0 µM
The reply should contain only the number, in %.

Prompt: Let me know recorded kinase still bound, per cent of control for `N#Cc1c(NC(=O)c2cccc3ccccc23)sc2c1CCCC2` , thanks.
Completion: 95

Prompt: Give kinase still bound, per cent of control for the following compound: `O=C(O)c1ccc(Nc2ncc3c(n2)-c2ccc(Cl)cc2C(c2c(F)cccc2F)=NC3)cc1`
Completion: 100

Prompt: Give the measured kinase still bound, per cent of control for COc1cc(C(=O)NC2CCN(C)CC2)ccc1Nc1ncc2c(n1)N(C1CCCC1)C(C)CC(=O)N2C (stereo not given)
Completion: 100

Prompt: Give kinase still bound, per cent of control for the following compound: `COc1cc(N2CCN(C)CC2)ccc1Nc1nc(N)c(C(=O)c2c(Cl)cccc2Cl)s1`
Completion: 78

Prompt: State its kinase still bound, per cent of control for this compound: `C=CC(=O)Nc1cccc(Nc2nc(N[C@H]3CC[C@H](N(C)C)CC3)nc3c2ncn3C(C)C)c1`
Completion: 77

* * *

measuredOn: EPHA7 (human)
methodSummary: KINOMEscan competition binding
conditionLabel: compound 10.0 µM
Measured kinase still bound, per cent of control by item
Use % as the unit, but write only the number.

Reference set, count: 4
Cn1c(=O)n(-c2ccc(C(C)(C)C#N)cc2)c2c3cc(-c4cnc5ccccc5c4)ccc3ncc21 = 100
C=CC(=O)Nc1cccc(Nc2nc(N[C@H]3CC[C@H](N(C)C)CC3)nc3c2ncn3C(C)C)c1 = 100
O=C(NC1CC1)c1cccc(-c2ccc3c(NC(=O)C4CC4)n[nH]c3c2)c1 = 96
Cc1ccc(NC(=O)c2cccc(C(C)(C)C#N)c2)cc1Nc1ccc2ncn(C)c(=O)c2c1 = 84

Now for a further compound.
Prompt: Hello, please tell me recorded kinase still bound, per cent of control for this one: `N#Cc1c(NC(=O)c2cccc3ccccc23)sc2c1CCCC2`
Completion: 84

* * *

measuredOn: AURKB (human)
methodSummary: KINOMEscan competition binding
conditionLabel: compound 10.0 µM
endpoint: kinase still bound, per cent of control (%)
Answer in %, number only, no unit symbol.

Solved cases below.
OCCCNc1cc(-c2ccnc(Nc3cccc(Cl)c3)n2)ccn1 = 100
O=C1Nc2ccc(I)cc2/C1=C/c1cc(Br)c(O)c(Br)c1 = 9.4
COc1cc(C(=O)NC2CCN(C)CC2)ccc1Nc1ncc2c(n1)N(C1CCCC1)C(C)CC(=O)N2C (stereo unspecified) = 100
Cc1ccc2nc(NCCN)c3ncc(C)n3c2c1 = 67
O=C(O)c1ccc(Nc2ncc3c(n2)-c2ccc(Cl)cc2C(c2c(F)cccc2F)=NC3)cc1 = 0.3

// moving on: another record for kinase still bound, per cent of control
Prompt: Return value of kinase still bound, per cent of control for input `C=CC(=O)Nc1cc(NC(=O)c2ccc(C)c(NC(=O)c3ccno3)c2)cc(C(F)(F)F)c1` , no commentary.
Completion: 100

* * *

Reported kinase still bound, per cent of control is given for each of the following compounds.
measuredOn: CLK4 (human)
methodSummary: KINOMEscan competition binding
conditionLabel: compound 10.0 µM
Reply with just the number (in %).

Worked cases, answers included:
N#Cc1c(NC(=O)c2cccc3ccccc23)sc2c1CCCC2 = 84
C=CC(=O)Nc1cccc(Nc2nc(N[C@H]3CC[C@H](N(C)C)CC3)nc3c2ncn3C(C)C)c1 = 5.1
C=CC(=O)Nc1cc(NC(=O)c2ccc(C)c(NC(=O)c3ccno3)c2)cc(C(F)(F)F)c1 = 100
O=C(O)c1ccc(Nc2ncc3c(n2)-c2ccc(Cl)cc2C(c2c(F)cccc2F)=NC3)cc1 = 100
CCCS(=O)(=O)Nc1ccc(F)c(C(=O)c2c[nH]c3ncc(-c4ccc(Cl)cc4)cc23)c1F = 100

Prompt: Return reported kinase still bound, per cent of control. Input compound: `Nc1ccc(-c2ccc3ncc4ccc(=O)n(-c5cccc(C(F)(F)F)c5)c4c3c2)cn1`
Completion: 34

* * *

measuredOn: MAP3K12 (human) (UniProt Q12852)
Sequence (Q12852 whole entry, looked up): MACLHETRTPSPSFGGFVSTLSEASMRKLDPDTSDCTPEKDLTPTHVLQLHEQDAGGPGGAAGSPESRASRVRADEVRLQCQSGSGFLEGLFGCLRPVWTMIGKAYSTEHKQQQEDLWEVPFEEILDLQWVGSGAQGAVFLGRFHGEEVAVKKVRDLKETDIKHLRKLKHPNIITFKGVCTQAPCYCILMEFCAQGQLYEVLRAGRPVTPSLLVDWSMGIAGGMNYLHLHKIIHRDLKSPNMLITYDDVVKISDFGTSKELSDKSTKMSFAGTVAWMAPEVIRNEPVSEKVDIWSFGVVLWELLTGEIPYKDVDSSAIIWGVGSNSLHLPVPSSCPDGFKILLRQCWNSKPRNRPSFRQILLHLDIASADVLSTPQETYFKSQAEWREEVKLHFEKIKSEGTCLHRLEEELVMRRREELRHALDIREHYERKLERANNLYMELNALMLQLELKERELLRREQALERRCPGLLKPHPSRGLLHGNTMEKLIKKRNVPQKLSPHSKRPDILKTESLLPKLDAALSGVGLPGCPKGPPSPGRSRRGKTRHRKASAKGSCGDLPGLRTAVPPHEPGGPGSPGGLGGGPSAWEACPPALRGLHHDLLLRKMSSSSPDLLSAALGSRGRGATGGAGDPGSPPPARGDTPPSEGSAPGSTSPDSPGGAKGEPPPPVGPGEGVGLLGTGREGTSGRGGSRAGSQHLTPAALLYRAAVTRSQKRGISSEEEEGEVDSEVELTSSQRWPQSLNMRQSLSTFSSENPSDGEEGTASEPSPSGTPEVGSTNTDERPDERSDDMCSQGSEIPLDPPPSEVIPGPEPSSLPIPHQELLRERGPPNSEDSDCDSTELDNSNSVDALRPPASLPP
methodSummary: KINOMEscan competition binding
conditionLabel: compound 10.0 µM
This listing pairs compounds with measured kinase still bound, per cent of control.
Expressed in %, but write only the number.

# annotated cases, reported kinase still bound, per cent of control shown
O=C1Nc2ccc(I)cc2/C1=C/c1cc(Br)c(O)c(Br)c1 = 80
COc1cc(C(=O)NC2CCN(C)CC2)ccc1Nc1ncc2c(n1)N(C1CCCC1)C(C)CC(=O)N2C (centres undefined) = 100
CC[C@@H]1C(=O)N(C)c2cnc(Nc3ccc(C(=O)NC4CCN(C)CC4)cc3OC)nc2N1C1CCCC1 = 100
C[C@@H](Oc1cc(-n2cnc3ccc(CN4CCN(C)CC4)cc32)sc1C(N)=O)c1ccccc1C(F)(F)F = 57

Prompt: Give the reported value of kinase still bound, per cent of control for this record: `Cc1ccc2nc(NCCN)c3ncc(C)n3c2c1`
Completion: 84

Prompt: Respond only with kinase still bound, per cent of control recorded for `COc1cc(C(=O)NC2CCN(C)CC2)ccc1Nc1ncc2c(n1)N(C1CCCC1)CCC(=O)N2C(C)C`
Completion: 100

Prompt: Give the reported kinase still bound, per cent of control for this compound. `Cc1ccc(NC(=O)c2cccc(C(C)(C)C#N)c2)cc1Nc1ccc2ncn(C)c(=O)c2c1`
Completion: 74

Prompt: Determine from records and report kinase still bound, per cent of control for `Cc1ccc(C(=O)Nc2cccc(C(F)(F)F)c2)cc1Nc1cncc(C(N)=O)c1`
Completion: 100

Prompt: // Input: `O=C(NC1CC1)c1cccc(-c2ccc3c(NC(=O)C4CC4)n[nH]c3c2)c1` . Output its kinase still bound, per cent of control only.
Completion: 30

* * *

measuredOn: RIPK1 (human) (UniProt Q13546)
Sequence (Q13546 whole entry, looked up): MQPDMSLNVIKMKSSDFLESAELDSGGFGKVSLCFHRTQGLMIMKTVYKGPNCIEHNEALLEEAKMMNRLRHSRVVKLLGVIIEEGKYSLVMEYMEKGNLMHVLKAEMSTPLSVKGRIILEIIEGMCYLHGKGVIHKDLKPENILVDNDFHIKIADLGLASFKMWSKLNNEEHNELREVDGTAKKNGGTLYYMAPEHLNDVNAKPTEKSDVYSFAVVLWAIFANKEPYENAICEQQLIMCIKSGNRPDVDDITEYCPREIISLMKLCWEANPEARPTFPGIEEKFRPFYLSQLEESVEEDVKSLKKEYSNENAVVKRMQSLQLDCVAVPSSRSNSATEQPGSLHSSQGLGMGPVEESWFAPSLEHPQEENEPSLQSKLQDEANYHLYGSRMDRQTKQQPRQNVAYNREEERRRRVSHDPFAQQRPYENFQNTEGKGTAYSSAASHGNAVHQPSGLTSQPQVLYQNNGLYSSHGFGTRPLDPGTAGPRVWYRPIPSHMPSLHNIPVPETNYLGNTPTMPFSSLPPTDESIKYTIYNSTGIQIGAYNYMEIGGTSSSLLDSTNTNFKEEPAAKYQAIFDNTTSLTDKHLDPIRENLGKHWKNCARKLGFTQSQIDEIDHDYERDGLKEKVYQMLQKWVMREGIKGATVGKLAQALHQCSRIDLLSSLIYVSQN
methodSummary: KINOMEscan competition binding
conditionLabel: compound 10.0 µM
endpoint: kinase still bound, per cent of control (%)
Form entry: value (%) — number only.

Here's what some known entries look like.
Cc1ccc(NC(=O)c2cccc(C(C)(C)C#N)c2)cc1Nc1ccc2ncn(C)c(=O)c2c1 = 83
OCCCNc1cc(-c2ccnc(Nc3cccc(Cl)c3)n2)ccn1 = 100
COc1cc(C(=O)NC2CCN(C)CC2)ccc1Nc1ncc2c(n1)N(C1CCCC1)CCC(=O)N2C(C)C = 100
C[C@@H](Oc1cc(-n2cnc3ccc(CN4CCN(C)CC4)cc32)sc1C(N)=O)c1ccccc1C(F)(F)F = 100
CN(C)C/C=C/C(=O)Nc1cccc(Nc2ncc3c(n2)N(C)c2ccccc2C(=O)N3C)c1 = 28

Prompt: Please list kinase still bound, per cent of control recorded for the compound `CCCS(=O)(=O)Nc1ccc(F)c(C(=O)c2c[nH]c3ncc(-c4ccc(Cl)cc4)cc23)c1F`
Completion: 63

Prompt: Give kinase still bound, per cent of control for the following compound: `Nc1ccc(-c2ccc3ncc4ccc(=O)n(-c5cccc(C(F)(F)F)c5)c4c3c2)cn1`
Completion: 100

Prompt: Entry `O=C1Nc2ccc(I)cc2/C1=C/c1cc(Br)c(O)c(Br)c1` needs its kinase still bound, per cent of control filled in; supply it.
Completion: 85

Prompt: Provide kinase still bound, per cent of control value for the following compound: `Cc1ccc(C(=O)Nc2cccc(C(F)(F)F)c2)cc1Nc1cncc(C(N)=O)c1`
Completion: 100

* * *

measuredOn: STK11 (human) (UniProt Q15831)
Sequence (Q15831 whole entry, looked up): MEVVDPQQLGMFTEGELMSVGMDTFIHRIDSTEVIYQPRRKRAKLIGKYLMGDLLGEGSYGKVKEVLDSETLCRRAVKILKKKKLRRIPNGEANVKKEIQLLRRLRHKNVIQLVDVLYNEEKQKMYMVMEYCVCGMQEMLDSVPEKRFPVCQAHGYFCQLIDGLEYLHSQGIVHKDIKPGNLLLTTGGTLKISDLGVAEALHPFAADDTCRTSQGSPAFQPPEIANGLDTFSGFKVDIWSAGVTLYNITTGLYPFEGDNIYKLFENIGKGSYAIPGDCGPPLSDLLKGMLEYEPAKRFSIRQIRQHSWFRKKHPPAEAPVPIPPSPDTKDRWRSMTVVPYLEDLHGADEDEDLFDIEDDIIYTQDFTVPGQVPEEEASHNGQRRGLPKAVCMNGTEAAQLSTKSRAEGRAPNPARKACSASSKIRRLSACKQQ
methodSummary: KINOMEscan competition binding
conditionLabel: compound 10.0 µM
Returns: string. Value is t if measured kinase still bound, per cent of control is below 90%, and f if it is greater than or equal to it.

Some entries whose results are on file:
COc1cc(C(=O)NC2CCN(C)CC2)ccc1Nc1ncc2c(n1)N(C1CCCC1)CCC(=O)N2C(C)C = f
N#Cc1c(NC(=O)c2cccc3ccccc23)sc2c1CCCC2 = t
C=CC(=O)Nc1cccc(Oc2nc(Nc3ccc(N4CCN(C)CC4)cc3OC)ncc2Cl)c1 = f
O=C(NOC[C@H](O)CO)c1ccc(F)c(F)c1Nc1ccc(I)cc1F = t
Nc1ccc(-c2ccc3ncc4ccc(=O)n(-c5cccc(C(F)(F)F)c5)c4c3c2)cn1 = f
CN(C)C/C=C/C(=O)Nc1cccc(Nc2ncc3c(n2)N(C)c2ccccc2C(=O)N3C)c1 = f

Prompt: Is it true that kinase still bound, per cent of control reported for `O=C1Nc2ccc(I)cc2/C1=C/c1cc(Br)c(O)c(Br)c1` is less than 90%?
Completion: t

Prompt: Problem: For the compound `CCOc1cc2ncc(C#N)c(Nc3ccc(OCc4ccccn4)c(Cl)c3)c2cc1NC(=O)/C=C/CN(C)C` , is kinase still bound, per cent of control under 90%?
Completion: f

Prompt: Hi there! Is kinase still bound, per cent of control for `COc1cc(N2CCN(C)CC2)ccc1Nc1nc(N)c(C(=O)c2c(Cl)cccc2Cl)s1` below 90%, do you know?
Completion: f
